- procedure text: yeast display, Sf9 membrane polyspecificity reagent, FACS + sequencing; frameworks hold sequencing errors

| sequence record | polyreactivity (PSR sort gate) |
| --- | --- |
| QVQLVESGGGLVQAGRSLRLSCAASGRTSAYYAMGWYRQPPGKERELVAGITRGGRTNYADSVKGRFTISRDNAKNTVYLQLNSLKPEDTAVYYCAAKYVYYLNSRTSGYWGQGSQVTVSS | high polyreactivity |
| QVQLVESGGGLVQAGGSLRLSCAASGRIFPVNAMGWYRQAPGKERELVARISWRGGTYYADSVKGRFTISRDNAKNTVYLQMNSLKPEDTAVYYCAATLPSTSYWYHYGYWGQGTQVTVSS | high polyreactivity |
| QVQLVESGGGLVQAGGSLRLSCAASGYTFWWYAMGWSRQAPGKERELVAAISIGGSTKYADSVKGRFTISRDNAKNTVYLQMNSLKPEDTAVYYCAAEVSYHYVPYGYWGQGTQVTVSS | low polyreactivity |
| QVQLVESGGGLVQAGCSLRFSSAASGRISNYPMGWYRQPPGKERELVAAITWSGGSTYADSVKGRFTISRDNAKNTVYLQMNSLKPEDTAVYYWAARGTRYWDYRYYAYNYWGQGTQVTVSS | high polyreactivity |
| QVQLVESGGGLVQAGGSLRLSCAASGSIFTVYAMGWYRQAPGKERELVAAISRRGGSTYYADSVKGRFTISRDNAKNTVYLQMNSLKPEDTAVYYCAALERTLDNKYQFGYWGQGTEVTVSS | high polyreactivity |
| QVQLVESGGVLVQAVGSLRLSCAASGRIFKNYAMGWYIQAPGKESELVAAISWSGGRTYYADSVKGRFTISRDNAKNTVYLQMNSLKPEDTAVYYCAVDFYYYGSRYYYWGQGTQVTVSS | high polyreactivity |
| QVQLVESGGGLVQAGGSLRLSCAASGSIFQGYAMGWYRQAPGKERELVAVITSSGGSTYYADSVKGRFTISRDNAKNTVYLQMNSLKPEDTAVYYCAVGLLVYSRTYIGQAFFRYNYWGQGTQVTVSS | high polyreactivity |
| QVQLVESGGGLVQAGGSLRLSCAASGFIFANYAMGWYRQAPGKERELVAAISTSGSSTYYADSVKGRFTISRDNAKNTVYLQMNSLKPEDTAVYYCNTYLTIWGYFYGYDYWGQGTQVTVSS | high polyreactivity |
| QVQLVESGGGLVQAGGSLRLSCAASGFIFRRYAMGWYRQAPGKERELVAAISSGGRTYYADSVKGRFTISRDNAKNTVYLQMNSLKPEDTAVYYCAAYSPYLRSWYDYWGQGTQVTVSS | high polyreactivity |
| QVQLVESGGGLVQAGGSLRLSCAASGRTFRQYAMGWYRQSPGKERELVATISGGGGNTYYADSVKGSFTISRDNAKNTVYLQMNSLKQEDTAVYYCAARRRDRPVRGYDYWGQGTQVTVSS | high polyreactivity |
| QVQLVESGGGLVQAGGSLRLSCAASGSTFRTNTRGWYRQAPGKERELVAAITKSGGSTYYADSVKGRFTISRDNAKNTVYLQMNSLKPEDTAVYYCAARVLYRSGLRGDYWGQGTQVTVSS | high polyreactivity |
| QVQLVESGGGLVQAGGSLRLSCAASGRIFDIYAMGWYRQAPGKERELVAAITRGGSTYADSVKGRFTISRDNAKNTVYLQMNSLKPEDTAVYYCAARPRLPRQIGGDGHLDDYWGQGTQVTVSS | high polyreactivity |
| QVQLVESGGGLVQAGGSLRLSCAASGFNFPYYAMGWYRQAPGKERELVAAISSSGGSTYYADSVKGRFTISRDNAKNTVYLHMNSLKPEDTAVYYCAADAYSGYSDYYWGQGTQVTVSS | low polyreactivity |
| QVQLQESFVGLVQAGGSLRLICAASGNIFPTDRMGWYRQAPGKELEFVATISHGGSTNYADSVKGRFTISRDNAKHTVYLQMNSLKPEDTAVYYCAVWSLGRWRNYYWGQGTQVTVIS | low polyreactivity |
| QVQLVESGCGLVHAGGSLRLSCAASGSNFGDYAMGCYRQAPGKERELVAAITKSGGTTYYADSVKGRFTISRDNAKNTVYLQMNSLKPEDTSFYYCAADPIRYRSRHKYGYWGQGTQVTVSS | low polyreactivity |
| PVQLVESGGGLVHAGGRHRLSSAASGSIFNYYPMGWYRKAPGTERELVATISAGGSTNYADSVTGRFTISRDNAKNTVYLHKNRLKPEDTAVYYCNRARYYLTSYTYLTSYDYWGQGTQGTVSS | high polyreactivity |
| QVQLVESGGGLVQAGGSLRLSCAASGRIFGWYAMGWYRQAPGKERELVAAITWSGTSTYYAYSVKGRFTISRDNAKNTVYLQMNSLKPEDTAVYYCAAEPGWTMDYWGQGTQVTVSS | low polyreactivity |
| QVQLVESGGGLVQAGGSLRLSCAASGRIFSSYALGWYRQARGKERELVAAISASGGRTYYADSVKGRCTISRDNAKNTVYLQMNSLKPEDTAVYYCNRGYISGSVVERYYWGQGTQVTVSS | high polyreactivity |
| QDQLVESGGGLVQAGGSLRLSCAASGSTFDGYAMGWYRPAPGKERELVADITSGGSTYYADSVKGRFTISRDNAKNTVYLQMNSLKPEDTAVYYCAVEGWWDDYNSRAGEFNYWGQRTQVTVSS | low polyreactivity |
| QVQLVESGGGLVQAGGSLRLSCAASGLTFYQNAMGWYRQAPGKEREFVASITRRGGRTYYADSVKGRFTISRDNAKNTVYLQMNSLKPEDTAVYYCAATFPQYQAIKEDYWGQGTQVTVSP | high polyreactivity |
| QVQHVESGGGLVQAGGSLRLSCAASGSIFTVNAMGWYRQAPGKERELVAAIDGSSGSTNYADSVKGRFTISRDNAKNTVYLQMNSLKPEDTAVYYCAADWSYEYGYWGQGTQVTVSS | low polyreactivity |
